Biological target: Human RNR (human M1 subunit and human M2 subunit) (Homo sapiens (Human), UniProt P23921)
Sequence (P23921 whole entry): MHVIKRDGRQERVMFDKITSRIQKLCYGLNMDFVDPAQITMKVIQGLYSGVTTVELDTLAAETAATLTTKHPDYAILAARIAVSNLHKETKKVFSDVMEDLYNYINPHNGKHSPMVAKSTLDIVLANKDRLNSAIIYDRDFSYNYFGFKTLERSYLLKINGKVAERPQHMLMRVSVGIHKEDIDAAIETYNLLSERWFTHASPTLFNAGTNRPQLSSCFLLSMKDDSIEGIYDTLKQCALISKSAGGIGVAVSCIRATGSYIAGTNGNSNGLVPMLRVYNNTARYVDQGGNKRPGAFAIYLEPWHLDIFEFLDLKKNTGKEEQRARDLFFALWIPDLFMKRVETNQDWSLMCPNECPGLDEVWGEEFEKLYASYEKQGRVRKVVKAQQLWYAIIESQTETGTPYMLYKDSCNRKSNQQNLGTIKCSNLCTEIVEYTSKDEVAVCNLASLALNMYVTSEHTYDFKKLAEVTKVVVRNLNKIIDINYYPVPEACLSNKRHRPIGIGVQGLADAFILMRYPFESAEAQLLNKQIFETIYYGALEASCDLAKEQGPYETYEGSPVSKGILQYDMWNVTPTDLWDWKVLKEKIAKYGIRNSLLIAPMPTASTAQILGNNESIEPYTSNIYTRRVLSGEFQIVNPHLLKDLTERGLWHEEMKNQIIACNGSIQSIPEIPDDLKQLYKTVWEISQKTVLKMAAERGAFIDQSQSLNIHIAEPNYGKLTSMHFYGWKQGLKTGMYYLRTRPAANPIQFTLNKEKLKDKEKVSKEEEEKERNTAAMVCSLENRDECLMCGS
Assay: Human RNR inhibition effect (formation of dCDP from CDP, HPLC)
Type: biochemical
Conditions: human M1 and M2 proteins, 10 μM CDP, 37° C. for 30 minutes; read-out: IC50 (concentration inhibiting the RNR reaction by 50%)
measuredMetric: pIC50
One number for each entry, as −log10 of the molar value.

Asked: Please report pIC50 for the following compound: Cc1ccc(S(=O)(=O)NC(Cc2ccccc2)c2nnc(S)o2)cc1 (stereo not shown) [Comparative Example 1, reference compound]
Given back: 4.37

====

Test system: various cancer cell lines as described in Table 21
Experiment: Cell proliferation inhibitory effect on human cancer-derived cancer cell lines (method of Test Example 2)
Format: cell-based
Settings: HLE, Liver Cancer, 3000 cell/well, read-out: cell proliferation inhibitory effect, HLE
Exercise: for every item that follows, state its recorded IC50.
Give bare numbers, in nM.

[
  {
    "compound": "CCc1ccc(F)c([C@@H](C)[C@H](NS(=O)(=O)c2ccc(Cl)cc2C(N)=O)c2n[nH]c(=O)o2)c1C",
    "systemTested": "various cancer cell lines as described in Table 21",
    "IC50 / nM": 1740
  },
  {
    "compound": "Cc1c(Cl)ccc(F)c1[C@@H](C)[C@H](NS(=O)(=O)c1ccc(Cl)cc1C(N)=O)c1n[nH]c(=O)o1",
    "systemTested": "various cancer cell lines as described in Table 21",
    "IC50 / nM": 1300
  },
  {
    "compound": "Cc1c(Cl)ccc(F)c1[C@@H](C)[C@H](NS(=O)(=O)c1ccc(Cl)c2c1OCCC2(C)O)c1n[nH]c(=O)o1 (single isomer, unassigned) [Example 209A]",
    "systemTested": "various cancer cell lines as described in Table 21",
    "IC50 / nM": 260
  },
  {
    "compound": "[2H]C([2H])([2H])C1(O)CCOc2c(S(=O)(=O)N[C@H](c3n[nH]c(=O)o3)[C@H](C)c3c(F)ccc(C)c3C)ccc(Cl)c21 (single isomer, unassigned) [Example 200A]",
    "systemTested": "various cancer cell lines as described in Table 21",
    "IC50 / nM": 140
  },
  {
    "compound": "Cc1ccc(F)c([C@@H](C)[C@H](NS(=O)(=O)c2ccc(Cl)c3c2OCCC3O)c2n[nH]c(=O)o2)c1C (single isomer, unassigned) [Example 235A]",
    "systemTested": "various cancer cell lines as described in Table 21",
    "IC50 / nM": 420
  }
]

Okay, now this compound:
Asked: Lab note: record IC50 of `Cc1ccc(F)c([C@@H](C)[C@H](NS(=O)(=O)c2ccc(Cl)cc2C(N)=O)c2n[nH]c(=O)o2)c1C` tested on various cancer cell lines as described in Table 21.
Given back: 790

====

Target: Human RNR (human M1 subunit and human M2 subunit) (Homo sapiens (Human), UniProt P23921)
Assay: Human RNR inhibition effect (formation of dCDP from CDP, HPLC)
Assay type: biochemical
Details: human M1 and M2 subunits; formation of dCDP from CDP; read-out: RNR Enzyme inhibitory activity IC50
Assign IC50 to each entry below.
Answers are plain numbers, in nM.

[
  {
    "molecule": "Cc1ccc(F)c([C@@H](C)[C@H](NS(=O)(=O)c2ccc(C(F)(F)F)c3c2OCCC3(C)O)c2n[nH]c(=O)o2)c1C (single isomer, unassigned) [Example 225A]",
    "IC50 / nM": 120
  }
]

Asked: Name the recorded IC50 of the item COc1cc(Cl)ccc1S(=O)(=O)N[C@H](c1n[nH]c(=O)o1)[C@H](C)c1c(F)ccc(-c2ccn(C)n2)c1C [Example 305] in your answer.
Given back: 240
